tested on: Yap1 mRNA; test: Antisense inhibition of human Yap1 in A-431 cells by cEt gapmers, single dose (Example 2, RTS4814); format: cell-based; settings: Table 22; Yap1 mRNA as percent of untreated control; 3-10-3 cEt gapmers; single dose
Strand notation (5' to 3'): a small letter for the sugar, then the base; units joined by * are phosphorothioate-linked, units joined directly phosphodiester-linked; [ ] holds rarer units or linkages, { } end groups; capitals alone tell only the bases. k = constrained ethyl (cEt); [5mC] = 5-methylcytosine; d = 2'-deoxy (DNA)
endpoint.label: YAP1 (% UTC)

- 1074856 (antisense kT*kT*kT*dG*dA*d[5mC]*dA*dA*dG*dT*dG*dT*dG*k[5mC]*kA*kT) [Compound 1074856]: 15
- 1075336 (kG*k[5mC]*kT*dT*dA*dA*dT*dA*dA*dT*d[5mC]*dT*dA*k[5mC]*k[5mC]*kA; antisense) [Compound 1075336]: 32
- 1075272 (antisense kA*kA*kT*dT*dA*dG*d[5mC]*d[5mC]*dA*dG*d[5mC]*dA*dT*kG*k[5mC]*kA) [Compound 1075272]: 110
- 1075368 (kG*kA*kG*dA*dA*dT*dA*dA*dG*d[5mC]*dA*dA*dT*k[5mC]*kA*kG; antisense) [Compound 1075368]: 24
- 1074632 (antisense kT*k[5mC]*kA*dT*dA*dG*d[5mC]*dA*dG*d[5mC]*dT*dT*dT*kT*kG*k[5mC]) [Compound 1074632]: 12
- 1074664 (antisense kG*k[5mC]*kA*dT*dT*d[5mC]*dT*dA*dG*dG*dT*dA*dG*kA*kA*kT) [Compound 1074664]: 49
- 1074472 (kA*kA*k[5mC]*d[5mC]*d[5mC]*d[5mC]*d[5mC]*d[5mC]*d[5mC]*dA*d[5mC]*d[5mC]*dG*kA*k[5mC]*k[5mC]; antisense) [Compound 1074472]: 107
- 1076168 (k[5mC]*kA*kA*dA*dT*dT*dT*dA*d[5mC]*dA*d[5mC]*d[5mC]*dA*k[5mC]*k[5mC]*kG; antisense) [Compound 1076168]: 23
- 1075752 (k[5mC]*kA*kT*dA*dA*dT*dT*dA*dT*dA*d[5mC]*dT*dG*kA*kT*k[5mC]; antisense) [Compound 1075752]: 19
- 1076552 (antisense kA*kT*kG*dT*dA*dT*dA*dA*dA*dT*dA*d[5mC]*d[5mC]*kA*kG*kG) [Compound 1076552]: 7
- 1074216 (antisense kG*kA*kT*dT*dT*dG*dG*dG*d[5mC]*dT*d[5mC]*d[5mC]*dG*kG*k[5mC]*kG) [Compound 1074216]: 58
- 1076104 (kA*k[5mC]*kG*dA*dA*dA*dT*dA*dG*dT*dA*dA*d[5mC]*kT*kG*kT; antisense) [Compound 1076104]: 24

Just for reference, patent US11214803B2 is where these values come from.
